Target: extracellular domain of human BLyS protein (hBLyS-ECD), His-tagged, Ala134-Leu285 (human, UniProt Q9Y275 134-285)
Sequence (Q9Y275 134-285): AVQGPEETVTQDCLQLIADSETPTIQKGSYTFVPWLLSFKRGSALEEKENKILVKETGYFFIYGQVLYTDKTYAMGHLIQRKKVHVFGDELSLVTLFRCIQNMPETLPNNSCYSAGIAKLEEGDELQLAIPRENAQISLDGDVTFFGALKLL
Test: cell-based or functional assay
Measurement Label: Proportion of B lymphocytes in splenocytes (%), in vivo in mice
Value expressed in %; do not type the unit.

Exam item: Name the recorded Proportion of B lymphocytes in splenocytes (%), in vivo in mice of the binder listed here: c97A3C2H4 (antibody, V domains shown, also called chimeric antibody c97A3C2H4) VH: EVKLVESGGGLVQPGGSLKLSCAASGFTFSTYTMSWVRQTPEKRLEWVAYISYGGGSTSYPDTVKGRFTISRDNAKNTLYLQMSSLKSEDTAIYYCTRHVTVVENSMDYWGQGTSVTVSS VL: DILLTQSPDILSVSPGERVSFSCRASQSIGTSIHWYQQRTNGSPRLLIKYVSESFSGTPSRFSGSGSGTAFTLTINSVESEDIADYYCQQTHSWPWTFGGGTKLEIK
Marked response: 28.2

Sourced from patent US20210347873A1
